These measurements were taken from patent EP4818172A1.

System: Normal human epidermal keratinocytes
Experiment: Antioxidant effect: ROS production inhibition after H2O2 (DCFHDA probe)
Type: cell-based
Settings: sample at 10 mM or less, 24 hours, then 0.2 mM H2O2 for 2 hours, N=4
recorded_metric: Antioxidant effect (ROS production inhibition rate)

{"compound": "CCCC(=O)OCC(OC(=O)CCC)C1OC(=O)C2=C1OCCCCO2 (centres unmarked) [synthesis example 10]", "system": "Normal human epidermal keratinocytes", "measured": "+ (<20%)"}
{"compound": "CCCCCCCC(=O)OCC(OC(=O)CCCCCCC)C1OC(=O)C2=C1OCCCO2 (centres unmarked) [synthesis example 23]", "system": "Normal human epidermal keratinocytes", "measured": "+ (<20%)"}
{"compound": "CCCCCCCCCCCC(=O)OCC(OC(=O)CCCCCCCCCCC)C1OC(=O)C2=C1OCCCCO2 (centres unmarked) [synthesis example 14]", "system": "Normal human epidermal keratinocytes", "measured": "+ (<20%)"}
{"compound": "CCCCCCCCCCCC(=O)OCC(O)C1OC(=O)C2=C1OCCCCO2 (centres unmarked) [synthesis example 13]", "system": "Normal human epidermal keratinocytes", "measured": "+ (<20%)"}

Go through the list and state Antioxidant effect (ROS production inhibition rate) for each entry.
1. CC(C)CCCCCCCCCCCCCCC(=O)OC[C@H](O)[C@H]1OC(=O)C2=C1OCCCCO2 [synthesis example 17]
2. CCCC(=O)OCC(O)C1OC(=O)C2=C1OCCCCO2 (centres unmarked) [synthesis example 9]
3. O=C1O[C@H]([C@@H](O)CO)C(OCC(O)CO)=C1O (some centres unmarked) [3-O-glyceryl ascorbic acid, reference compound]

1. + (<20%)
2. ++ (20-40%)
3. + (<20%)

Go through the list and state Antioxidant effect (ROS production inhibition rate) for each entry.
1. CCCCCCCCCCCCCCCC(=O)OCC(O)C1OC(=O)C2=C1OCCCCO2 (centres unmarked) [synthetic example 15]
2. O=C1OC2C(O)COC23OCCCCOC13 (centres unmarked) [synthesis Example 33]
3. O=C1O[C@H]([C@@H](O)CO)C(O)=C1OCC(O)CO (some centres unmarked) [2-O-glyceryl ascorbic acid, reference compound]
4. O=C1OC2C(O)COC23OCCCOC13 (centres unmarked) [synthesis Example 34]

["+ (<20%)", "++ (20-40%)", "+ (<20%)", "++ (20-40%)"]

###

Assay: Stability test -1: odor and coloration scored by 10 panelists
Format: physicochemical
Details: Test Example 1, aqueous solution, total score of 10 panelists, after 2 weeks

{"mol_smiles": "O=C1O[C@H]([C@@H](O)CO)C(O)=C1O", "Odor After 2 weeks": "Δ"}

###

Assay: Stability test -1: residual rate of 1% aqueous solutions at pH 3 to 9 on storage
Assay type: physicochemical
Details: 1% aqueous solution, pH3, stored at 50°C, after 4 weeks
recorded_metric: Residual Rate After 4 weeks

These solved cases illustrate the format of a correct answer.
{"molecule": "O=C1O[C@H]([C@@H](O)CO)C(O)=C1O", "measured": "Δ"}
{"molecule": "O=C1OC(C(O)CO)C2=C1OCC(O)CO2 (stereo not shown) [synthesis example 4]", "measured": "⊚"}
{"molecule": "O=C1OC(C(O)CO)C2=C1OCCCO2 (stereo not shown) [synthesis example 2, 2,3-O-(1,3-propanediyl) ascorbic acid]", "measured": "⊚"}
{"molecule": "O=C1OC(C(O)CO)C2=C1OCC1(COC1)CO2 (stereo not shown) [synthesis example 6]", "measured": "⊚"}
{"molecule": "O=C1OC(C(O)CO)C2=C1OCCCCO2 (stereo not shown) [synthesis example 3, 2,3-O-(1,4-butanediyl) ascorbic acid]", "measured": "⊚"}

Go through the list and state Residual Rate After 4 weeks for each entry.
1. O=C1OC(C(O)CO)C2=C1OCCO2 (stereo not shown) [synthesis example 1, 2,3-O-(1,2-ethanediyl) ascorbic acid]
2. O=C1OC(C(O)CO)C2=C1OC(CO)CO2 (stereo not shown) [synthesis example 5]

1: ⊚; 2: ⊚

###

Test: Stability test -1: odor and coloration scored by 10 panelists
Type: physicochemical
Settings: Test Example 1, aqueous solution, total score of 10 panelists, after 4 weeks
recorded_metric: Coloration After 4 weeks

{"compound": "O=C1OC(C(O)CO)C2=C1OCCO2 (stereo not shown) [synthesis example 1, 2,3-O-(1,2-ethanediyl) ascorbic acid]", "measured": "Δ"}

###

System: Normal human dermal fibroblasts
Assay: Collagen production promoting effect (ELISA of free collagen in supernatant)
Format: cell-based
Conditions: sample at 10 mM or less, cultured 48 hours, % of control group (100%), N=3
recorded_metric: Collagen production-promoting effect

These solved cases illustrate the format of a correct answer.
{"compound": "O=C1OC(C(O)CO)C2=C1OC(CO)CO2 (centres unmarked) [synthesis example 5]", "system": "Normal human dermal fibroblasts", "Collagen production-promoting effect": "+ (100-140%)"}
{"compound": "CCCCCCCC(=O)OCC(OC(=O)CCCCCCC)C1OC(=O)C2=C1OCCCO2 (centres unmarked) [synthesis example 23]", "system": "Normal human dermal fibroblasts", "Collagen production-promoting effect": "++ (140%<)"}
{"compound": "CCCC(=O)OCC(O)C1OC(=O)C2=C1OCCCCO2 (centres unmarked) [synthesis example 9]", "system": "Normal human dermal fibroblasts", "Collagen production-promoting effect": "+ (100-140%)"}
{"compound": "CCCCCCCCCCCCCCCC(=O)OCC(O)C1OC(=O)C2=C1OCCCCO2 (centres unmarked) [synthetic example 15]", "system": "Normal human dermal fibroblasts", "Collagen production-promoting effect": "++ (140%<)"}
{"compound": "CCCC(=O)OCC(OC(=O)CCC)C1OC(=O)C2=C1OCCCCO2 (centres unmarked) [synthesis example 10]", "system": "Normal human dermal fibroblasts", "Collagen production-promoting effect": "++ (140%<)"}

Go through the list and state Collagen production-promoting effect for each entry.
1. CC(C)CCCCCCCCCCCCCCC(=O)OCC(OC(=O)CCCCCCCCCCCCCCC(C)C)C1OC(=O)C2=C1OCCCO2 (centres unmarked) [synthesis example 29]
2. CC(C)CCCCCCCCCCCCCCC(=O)OC[C@H](O)[C@H]1OC(=O)C2=C1OCCCCO2 [synthesis example 17]
3. O=C1OC(C(O)CO)C2=C1OCCO2 (centres unmarked) [synthesis example 1, 2,3-O-(1,2-ethanediyl) ascorbic acid]
4. CCCCCCCC(=O)OCC(OC(=O)CCCCCCC)C1OC(=O)C2=C1OCCCCO2 (centres unmarked) [synthetic example 12]
5. O=C1O[C@H]([C@@H](O)CO)C(OCC(O)CO)=C1O (some centres unmarked) [3-O-glyceryl ascorbic acid, reference compound]
6. O=C1O[C@H]([C@@H](O)CO)C(O)=C1OCC(O)CO (some centres unmarked) [2-O-glyceryl ascorbic acid, reference compound]
7. O=C1OC(C(O)CO)C2=C1OCCCCO2 (centres unmarked) [synthesis example 3, 2,3-O-(1,4-butanediyl) ascorbic acid]
8. O=C1OC(C(O)CO)C2=C1OCCCO2 (centres unmarked) [synthesis example 2, 2,3-O-(1,3-propanediyl) ascorbic acid]

1. ++ (140%<)
2. ++ (140%<)
3. + (100-140%)
4. ++ (140%<)
5. + (100-140%)
6. + (100-140%)
7. + (100-140%)
8. ++ (140%<)

Go through the list and state Collagen production-promoting effect for each entry.
1. CCCCCCCCCCCCCCCC(=O)OCC(OC(=O)CCCCCCCCCCCCCCC)C1OC(=O)C2=C1OCCCO2 (centres unmarked) [Synthesis Example 27]
2. O=C1OC(C(O)CO)C2=C1OCC1(COC1)CO2 (centres unmarked) [synthesis example 6]
3. O=C1OC(C(O)CO)C2=C1OCC(O)CO2 (centres unmarked) [synthesis example 4]
4. CCCC(=O)OCC(OC(=O)CCC)C1OC(=O)C2=C1OCCCO2 (centres unmarked) [synthesis example 21]

1: ++ (140%<); 2: ++ (140%<); 3: + (100-140%); 4: ++ (140%<)

###

Assay: Stability test -2: residual rate in cream of pH 7 or 9 stored at 50°C
Type: physicochemical
Conditions: cream with 4.0 W/W% derivative, pH9, stored at 50°C, after 4 weeks
Procedure: For each of the samples of Synthesis Examples 9 to 32, (a) and (b) shown in Table 12 were each heated and mixed. After cooling, (c) shown in Table 12 was added to prepare a cream with a pH of 7 or 9. The sample was stored at 50°C for 4 weeks, and the residual rate was determined in the same manner as in Test Example 1 and evaluated according to the criteria described below. The odor and coloration were also evaluated according to the same method and criteria as in Test Example 1. […]
recorded_metric: Residual Rate After 4 weeks

These solved cases illustrate the format of a correct answer.
{"compound": "CCCC(=O)OCC(OC(=O)CCC)C1OC(=O)C2=C1OCCCO2 (stereo not shown) [synthesis example 21]", "measured": "⊚ (95% or more)"}
{"compound": "CCCCCCCC(=O)OCC(OC(=O)CCC)C1OC(=O)C2=C1OCCCCO2 (stereo not shown) [synthetic example 19]", "measured": "⊚ (95% or more)"}
{"compound": "CCCCCCCCCCCC(=O)OCC(O)C1OC(=O)C2=C1OCCCO2 (stereo not shown) [synthesis example 24]", "measured": "⊚ (95% or more)"}
{"compound": "CCCC(=O)OCC(O)C1OC(=O)C2=C1OCCCCO2 (stereo not shown) [synthesis example 9]", "measured": "⊚ (95% or more)"}

Go through the list and state Residual Rate After 4 weeks for each entry.
1. CC(C)CCCCCCCCCCCCCCC(=O)OCC(OC(=O)CCCCCCCCCCCCCCC(C)C)C1OC(=O)C2=C1OCCO2 (stereo not shown) [Synthesis Example 32]
2. CCCCCCCC(=O)OCC(O)C1OC(=O)C2=C1OCCCO2 (stereo not shown) [synthesis example 22]

⊚ (95% or more)
⊚ (95% or more)

Go through the list and state Residual Rate After 4 weeks for each entry.
1. CCCC(=O)OCC(O)C1OC(=O)C2=C1OCCCO2 (stereo not shown) [synthesis example 20]
2. CCCCCCCCCCCC(=O)OCC(OC(=O)CCCCCCCCCCC)C1OC(=O)C2=C1OCCCO2 (stereo not shown) [synthesis example 25]
3. CCCCCCCC(=O)OCC(OC(=O)CCCCCCC)C1OC(=O)C2=C1OCCCO2 (stereo not shown) [synthesis example 23]

["⊚ (95% or more)", "⊚ (95% or more)", "⊚ (95% or more)"]

Go through the list and state Residual Rate After 4 weeks for each entry.
1. CCCC(=O)OCC(OC(=O)CCC)C1OC(=O)C2=C1OCCCCO2 (stereo not shown) [synthesis example 10]
2. CC(C)CCCCCCCCCCCCCCC(=O)OC[C@H](OC(=O)CCCCCCCCCCCCCCC(C)C)[C@H]1OC(=O)C2=C1OCCCCO2 [synthesis example 18]

1. ⊚ (95% or more)
2. ⊚ (95% or more)

Go through the list and state Residual Rate After 4 weeks for each entry.
1. CCCCCCCCCCCC(=O)OCC(O)C1OC(=O)C2=C1OCCCCO2 (stereo not shown) [synthesis example 13]
2. CCCCCCCC(=O)OCC(OC(=O)CCCCCCC)C1OC(=O)C2=C1OCCCCO2 (stereo not shown) [synthetic example 12]
3. CC(C)CCCCCCCCCCCCCCC(=O)OCC(O)C1OC(=O)C2=C1OCCO2 (stereo not shown) [synthesis example 31]
4. CCCCCCCCCCCCCCCC(=O)OCC(OC(=O)CCCCCCCCCCCCCCC)C1OC(=O)C2=C1OCCCCO2 (stereo not shown) [synthetic example 16]
5. CC(C)CCCCCCCCCCCCCCC(=O)OC[C@H](O)[C@H]1OC(=O)C2=C1OCCCCO2 [synthesis example 17]
6. CC(C)CCCCCCCCCCCCCCC(=O)OCC(OC(=O)CCCCCCCCCCCCCCC(C)C)C1OC(=O)C2=C1OCCCO2 (stereo not shown) [synthesis example 29]
7. CCCCCCCCCCCCCCCC(=O)OCC(OC(=O)CCCCCCCCCCCCCCC)C1OC(=O)C2=C1OCCCO2 (stereo not shown) [Synthesis Example 27]

1. ⊚ (95% or more)
2. ⊚ (95% or more)
3. ⊚ (95% or more)
4. ⊚ (95% or more)
5. ⊚ (95% or more)
6. ⊚ (95% or more)
7. ⊚ (95% or more)

Go through the list and state Residual Rate After 4 weeks for each entry.
1. CC(C)CCCCCCCCCCCCCCC(=O)OCC(O)C1OC(=O)C2=C1OCCCO2 (stereo not shown) [synthetic example 28]
2. CCCCCCCCCCCCCCCC(=O)OCC(OC(=O)CCC)C1OC(=O)C2=C1OCCCO2 (stereo not shown) [Synthesis Example 30]
3. CCCCCCCCCCCCCCCC(=O)OCC(O)C1OC(=O)C2=C1OCCCCO2 (stereo not shown) [synthetic example 15]

["⊚ (95% or more)", "⊚ (95% or more)", "⊚ (95% or more)"]
